Target: T1, MICB-Fc (R&D Systems 1599-MB) (human, UniProt Q29980 23-298, limits assumed)
T1 construct: Bought; also called human MICB-Fc; not shown: Fc of the bought fusion protein
T1 sequence: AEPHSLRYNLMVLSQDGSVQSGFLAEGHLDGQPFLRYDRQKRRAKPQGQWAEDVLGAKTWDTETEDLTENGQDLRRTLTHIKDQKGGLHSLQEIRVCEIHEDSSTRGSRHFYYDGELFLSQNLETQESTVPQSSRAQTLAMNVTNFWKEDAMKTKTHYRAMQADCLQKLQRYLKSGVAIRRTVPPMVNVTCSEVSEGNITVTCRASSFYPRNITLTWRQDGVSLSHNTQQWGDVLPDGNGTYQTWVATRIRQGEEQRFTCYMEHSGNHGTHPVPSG
Test: SPR, antibody at 10 µg/ml injected over immobilized MICB-Fc
Property Measured: binding result

| Binder | Measured Value |
| --- | --- |
| CHG1-M-MIA-18E8 (antibody, human IgG1, V domains shown, the VH entry ends with ASTK) VH: DVQLQESGPDLVNPSQSLSLICTVTGYSITSDYSWHWIRQFPGNKLEWMGNIHYSGRINYNPSLRSRISITRDTSKNQFFLQLISVTTEDTATYYCATRRTFGNFEDYWGQGTTLTVSS VL: QIVLSQSPATLSVSPGEKVTMTCRSSSSVNYMHWYQQKPGSSPKPWIYATSTLASGVPARFSGSGSGTSYSLTISRVEAEDAATYYCQQWSSNPLTFGAGTKLELK | binds |
| CHG1-M-MIA-15F9 (antibody, human IgG1, V domains shown, the VH entry ends with ASTK) VH: DVQLQESGPDLVKPSQSLSLTCTVTGYSITSGYSWHWIRQFPGNKLEWMGFIHYSGSTDYNPSLKSRISLTRDTSKNQFFLQLNSVSTEDTATYYCAKDYGHWYFDVWGAGTTVTVSS VL: SIVMTQTPKFLLVSAGDRVTITCKASQSVSYDVAWYQQKPGQSPKLLIFYASNRYTGVPARFTGSGYGTDFTFTISTVQAEDLAVYFCQQDYSSLTFGAGTKLELK | binds |
| CHG1-M-MIA-10F3 (antibody, human IgG1, V domains shown, the VH entry ends with ASTK) VH: QVQLQQSAAELARPGASVKMSCKASGYTFTSYTMHWVKQRPGQGLEWIGYINPSSGYTEYNQKFKDKTTLTVDKSSTTSYMQLSSLTSDNSAVYYCARGGDWDVDWFVYWGQGTLVTVSA VL: QIVLTQSPAIMSASPGEKVTITCSASSSISYMHWFQQKPGTSPKLWIYSTSKLASGVPARFSGSGSGTSHSLTISRMEAEDAATYYCQHRSTYPFTFGSGTKLEIK | binds |
| CHG1-M-MIA-6E4 (antibody, V domains shown, also called chimeric anti-MICA 6E4) VH: EVQLVESGGALVKPGGSLKLSCAASGFTFSYYAMSWVRQTPEKRLEWVATISRGGNYIYYTDSVKGRFTISRDNAKNTLYLQMTSLRSEDTAMFYCASISDYDGAWLAYWGQGTTLTVSS VL: DVLMTQTPLSLPVSLGDQASISCRSSQSIIHTNGNTYLEWYLQKPGQSPKLLIYKISNRFSGVPDRFSGSGSGTDFTLKISRVEAEDLGVYYCFQGSHVPWTFGGGTKLEIKR | binds |

Data provenance is patent US20200299380A1.
